ASSAYED SYSTEM: T1, rGyr_fl Y851F (full-length reverse gyrase) (Thermotoga maritima, UniProt O51934 1-1104, Y851F)
T1 sequence: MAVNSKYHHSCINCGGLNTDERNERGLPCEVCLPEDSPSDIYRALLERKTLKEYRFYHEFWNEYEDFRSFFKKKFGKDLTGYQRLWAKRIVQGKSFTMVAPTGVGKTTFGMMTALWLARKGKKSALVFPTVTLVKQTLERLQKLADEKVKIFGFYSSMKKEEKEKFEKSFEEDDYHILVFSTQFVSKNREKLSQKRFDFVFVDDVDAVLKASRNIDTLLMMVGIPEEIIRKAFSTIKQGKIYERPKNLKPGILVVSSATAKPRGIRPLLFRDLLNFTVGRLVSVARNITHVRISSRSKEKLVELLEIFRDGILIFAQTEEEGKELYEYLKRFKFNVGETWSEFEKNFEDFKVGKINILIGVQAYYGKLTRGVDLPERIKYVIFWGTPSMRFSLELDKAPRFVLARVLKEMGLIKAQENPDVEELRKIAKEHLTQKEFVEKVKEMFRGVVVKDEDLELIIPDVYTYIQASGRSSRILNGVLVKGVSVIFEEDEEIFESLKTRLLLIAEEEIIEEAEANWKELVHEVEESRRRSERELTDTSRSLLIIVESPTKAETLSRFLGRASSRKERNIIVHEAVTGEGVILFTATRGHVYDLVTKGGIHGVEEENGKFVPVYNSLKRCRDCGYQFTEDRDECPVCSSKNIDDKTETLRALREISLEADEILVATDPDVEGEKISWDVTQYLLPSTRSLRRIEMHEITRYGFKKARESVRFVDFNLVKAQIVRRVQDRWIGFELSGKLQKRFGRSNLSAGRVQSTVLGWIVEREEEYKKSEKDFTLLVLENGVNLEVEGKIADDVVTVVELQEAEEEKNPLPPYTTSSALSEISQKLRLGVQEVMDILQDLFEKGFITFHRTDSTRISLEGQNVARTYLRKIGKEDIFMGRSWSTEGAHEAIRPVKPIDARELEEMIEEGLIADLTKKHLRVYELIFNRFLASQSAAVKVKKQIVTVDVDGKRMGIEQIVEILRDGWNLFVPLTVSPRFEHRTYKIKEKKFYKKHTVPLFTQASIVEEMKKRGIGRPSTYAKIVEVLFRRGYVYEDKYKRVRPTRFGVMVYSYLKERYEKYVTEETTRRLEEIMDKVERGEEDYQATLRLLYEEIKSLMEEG
ASSAY TEXT: fluorescence anisotropy
pKd: −log10 of the molar value.
Catalogue of pKd readings, one per entry.
ENDPOINT NAME: pKd

60 bp dsDNA (dsDNA) DNA 1: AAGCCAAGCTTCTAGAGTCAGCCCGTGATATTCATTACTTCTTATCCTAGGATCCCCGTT DNA 2: AACGGGGATCCTAGGATAAGAAGTAATGAATATCACGGGCTGACTCTAGAAGCTTGGCTT ... 6.48
60-base ssDNA (ssDNA) DNA: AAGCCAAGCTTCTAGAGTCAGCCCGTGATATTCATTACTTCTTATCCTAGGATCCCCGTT ... 7.39
